# Test system: AMP-activated protein kinase (AMPK)
# assay.info: ADP Quest assay for AMPK activators
# Type: biochemical
# Design: key: fold AMPK activation with vs without activator at 30 µM
# assay.context: fold of AMPK activation to phosphorylate SAMS peptide without and with an activator at the concentration of 30 µM
outcome.measure: E30

- CC1(C)Cc2cc(C(=O)NS(=O)(=O)C3CC3)ccc2NC1c1cc(F)cc(N2CCCC2)c1 (stereo not shown): 1.61
- CN1CCN(c2cccc(C3Nc4c(cc(Cl)cc4C(=O)NS(=O)(=O)C4CC4)CC3(C)C)c2)CC1 (stereo not shown): 1.38
- COc1cc(C2Nc3ccc(C(=O)O)cc3CC2(C)C)cc(N2CCOCC2)c1 (stereo not shown): 1.42
- CN(C(N)=O)c1cccc(C2Nc3ccc(C(=O)O)cc3CC2(C)C)c1 (stereo not shown): 1.33
- Cc1ccccc1N1CCN(c2cccc(C3Nc4ccc(C(=O)O)cc4CC3(C)C)c2)CC1 (stereo not shown): 1.41
- CC1(C)Cc2cc(C(=O)O)ccc2NC1c1cccc(C(=O)N2CCCC2)c1 (stereo not shown): 1.36
- CC1(C)Cc2cc(C(=O)O)ccc2NC1c1cccc(NC(=O)c2cnccn2)c1 (stereo not shown): 1.32
- CNC(=O)c1cccc(C2Nc3ccc(C(=O)O)cc3CC2(C)C)c1 (stereo not shown): 1.38
- CCc1nnnn1-c1cccc(C2Nc3ccc(C(=O)NS(=O)(=O)C4CC4)cc3CC2(C)C)c1 (stereo not shown): 1.22
- CC1(C)Cc2cc(C(=O)O)ccc2NC1c1ccccc1NS(=O)(=O)c1ccc(F)cc1 (stereo not shown): 2.53
- CC1(C)Cc2cc(C(=O)NS(=O)(=O)C3CC3)ccc2NC1c1cc(F)cc(F)c1 (stereo not shown): 1.35
- CC1(C)Cc2cc(C(=O)O)ccc2NC1c1cccc(N2CC(=O)NC2=O)c1 (stereo not shown): 1.38
- COc1cc(C2Nc3ccc(C(=O)NS(=O)(=O)C4CC4)cc3CC2(C)C)cc(N2CCOCC2)c1 (stereo not shown): 1.38
- CC1(C)Cc2cc(C(=O)NS(=O)(=O)C3CC3)ccc2NC1c1cccc(N2CCOC2=O)c1 (stereo not shown): 1.2
- CC1(C)Cc2cc(C(=O)O)ccc2NC1c1cccc(NC2(C(=O)O)CC2)c1 (stereo not shown): 2.67
- CN(C)S(=O)(=O)c1cccc(C2Nc3ccc(C(=O)O)cc3CC2(C)C)c1 (stereo not shown): 1.31

---

# Tested on: AMP-activated protein kinase (AMPK)
# assay.info: ADP Quest assay for AMPK activators
# Type: biochemical
# Parameters: key: fold AMPK activation with vs without activator at 30 µM
# assay.context: fold of AMPK activation to phosphorylate SAMS peptide without and with an activator at the concentration of 30 µM
outcome.measure: E30

- CC1(C)Cc2cc(C(=O)O)ccc2NC1c1cccc(N2C(=O)OCC2Cc2ccccc2)c1 (stereo in doubt) [Example 124]: 1.34
- CN1CCN(c2cccc(C3Nc4ccc(C(=O)NS(C)(=O)=O)cc4CC3(C)C)c2)CC1 (stereo not drawn) [Example 96]: 1.5
- CNS(=O)(=O)c1ccc(C2Nc3ccc(C(=O)O)cc3CC2(C)C)cc1 (stereo not drawn) [Example 226]: 1.32

---

# Test system: AMP-activated protein kinase (AMPK)
# assay.info: ADP Quest assay for AMPK activators
# Assay type: biochemical
# Set-up: key: fold AMPK activation with vs without activator at 30 µM
# assay.context: fold of AMPK activation to phosphorylate SAMS peptide without and with an activator at the concentration of 30 µM
outcome.measure: E30

- CC(C)(C)c1ccc(-c2cccc(C3Nc4ccc(F)c(C(=O)NS(=O)(=O)C5CC5)c4CC3(C)C)c2)cc1 (stereo not shown): 1.66
- CC(C)S(=O)(=O)NC(=O)c1ccc2c(c1)CC(C)(C)C(c1cccc(N3CCOCC3)c1)N2 (stereo not shown): 1.27
- CC1(C)Cc2cc(C(=O)NS(C)(=O)=O)ccc2NC1c1cc(F)cc(N2CCCC2=O)c1 (stereo not shown): 1.42
- CC1(C)Cc2cc(C(=O)O)ccc2NC1c1ccc(NC(=O)c2ccc(F)cc2)cc1 (stereo not shown): 1.26
- CC1(C)Cc2cc(C(=O)O)ccc2NC1c1ccc(NS(=O)(=O)c2ccccc2)cc1 (stereo not shown): 1.39
- CN1CCC(NC(=O)c2cccc(C3Nc4ccc(C(=O)O)cc4CC3(C)C)c2)C1 (stereo not shown): 1.53
- CC(C)(C)c1ccc(-c2cccc(C3Nc4ccc(F)c(C(=O)O)c4CC3(C)C)c2)cc1 (stereo not shown): 1.66
- CC(C)N(C(N)=O)c1cccc(C2Nc3ccc(C(=O)O)cc3CC2(C)C)c1 (stereo not shown): 1.38
- CC(C)(CO)Nc1cccc(C2Nc3ccc(C(=O)O)cc3CC2(C)C)c1 (stereo not shown): 1.34
- CC1(C)Cc2cc(C(=O)O)ccc2NC1c1ccc(F)c(NC(=O)C2CCCC2)c1 (stereo not shown): 1.25
- CC1(C)Cc2cc(C(=O)O)ccc2NC1c1cccnc1 (stereo not shown): 1.29
- CC1(C)Cc2cc(C(=O)NS(=O)(=O)C3CC3)ccc2NC1c1cccc(N2C(=O)OC[C@H]2Cc2ccccc2)c1 (stereo partly shown): 1.25
- CC1(C)Cc2cc(C(=O)O)ccc2NC1c1cccc(N2CCNCC2)c1 (stereo not shown): 1.4
- CC1(C)Cc2cc(C(=O)O)ccc2NC1c1cccc(N2CCNC2=O)c1 (stereo not shown): 1.45
- CC(C)C1COC(=O)N1c1cccc(C2Nc3ccc(C(=O)O)cc3CC2(C)C)c1 (stereo in doubt): 1.5
- CC(C)NC(=O)C(C)(C)Nc1cccc(C2Nc3ccc(C(=O)NS(C)(=O)=O)cc3CC2(C)C)c1 (stereo not shown): 1.29
- CC(C)(C)c1ccc(-c2cccc(C3Nc4ccc(F)c(C(=O)NS(C)(=O)=O)c4CC3(C)C)c2)cc1 (stereo not shown): 1.36
- CC(C)(Nc1cccc(C2Nc3ccc(C#N)cc3CC2(C)C)c1)C(=O)O (stereo not shown): 2.12
- CC1(C)Cc2cc(C(=O)O)ccc2NC1c1ccc(F)c(Cl)c1 (stereo not shown): 1.21
- CC1(C)Cc2cc(C(=O)O)ccc2NC1c1cccc(S(=O)(=O)N2CCCC2)c1 (stereo not shown): 1.2
- CC1(C)Cc2cc(C(=O)NS(C)(=O)=O)ccc2NC1c1cccc(N2CCOCC2)c1 (stereo not shown): 1.29
- CC1(C)Cc2cc(C(=O)NS(C)(=O)=O)ccc2NC1c1cc(Cl)cc(N2CCOCC2)c1 (stereo not shown): 1.25
